Test: inhibition of NOD2-driven NF-kB reporter – cell-based, luminescence, uHTS, HEK293 (AID 1566)
Settings: HEK293 NOD2/NF-kB luciferase reporter, at 4 µM, active compounds read high
In all, about 290,000 compounds went through this assay and about 1,800 (0.62%) were called active. The entries come from a sample that favours actives as a whole.
PARAMETER MEASURED: inhibition (%)
Numeric answer only, unit % assumed.

Q: Give the measured inhibition of O=C(c1ccccc1)N1CCN(CCc2ccccn2)CC1 .
Result: -11.9

Q: Report inhibition for COc1ccccc1/C=C1\SC(=S)N(CCC(=O)N2CCCCC2CCO)C1=O (stereo unspecified) please.
Result: 5.9

Q: Look up inhibition for this compound: Nc1ncnc2c1ncn2Cc1ccccc1
Result: 6.4

Q: Fill in the blank: the reported inhibition of COc1ccc(Cl)cc1NC(=O)COc1ccc(S(=O)(=O)N2CCOCC2)cc1C is ____.
Result: 11.3

Q: So what does the record say about inhibition for CC(C)Cc1nc(N2CCN(C(=O)c3ccco3)CC2)c(C#N)c2c1CCC2 ?
Result: 13.3

Q: For O=C(CC1C(=O)NCCN1C(=O)Nc1ccc(Cl)cc1)Nc1ccc(F)cc1 (stereo unspecified) , what is its reported inhibition?
Result: 8.1

Q: What inhibition value was documented for this compound, Cc1ccc2c(COC(=O)c3c(C)noc3C)cc(=O)oc2c1 ?
Result: 0.4

Q: Entry CC(C)Cc1nc(N2CCN(C(=O)c3ccco3)CC2)c(C#N)c2c1CCCC2 : reported inhibition = ?
Result: 23.8

Q: What does the data say about its inhibition? Entry: Cc1csc(Nc2ccccc2C(F)(F)F)n1
Result: -3.5

Q: Look up inhibition: CCC(C)c1cc(S(=O)(=O)N2CCOCC2)ccc1OC (stereo unspecified)
Result: -10.6

Q: State the recorded inhibition for this entry: Cc1cccc(C2(c3cccc(C)c3)CC2C(=O)Nc2ccc([N+](=O)[O-])cc2O)c1 (stereo unspecified)
Result: 48.8

---

What inhibition was measured for each of the following?
Experiment: inhibition of NOD2-driven NF-kB reporter – cell-based, luminescence, uHTS, HEK293 (AID 1566)
Settings: HEK293 NOD2/NF-kB luciferase reporter, at 4 µM, active compounds read high
In all, about 290,000 compounds went through this assay and about 1,800 (0.62%) were called active. This excerpt belongs to a sample that is enriched for actives.
Write it as a number; the unit % goes unstated.

Q: Query (compound): Cc1cnc(NC(=O)c2c(-c3ccccc3)noc2C)s1 ; field requested: inhibition
Result: 5.6

Q: Return reported inhibition; argument: O=C(NCCn1cccn1)c1ccc(OC2CCN(C(=O)C3CC3)CC2)cc1
Result: -27.2

Q: Form field: reported inhibition of COc1ccc(/C=C2\CCC/C(=C\c3ccc(OC)c(OC)c3OC)C2=O)c(OC)c1OC
Result: -10.3

Q: Which inhibition value belongs to COc1cc(OC)c(OC)cc1/C=C1/Cc2ccccc2C1=O ?
Result: 26.6

Q: Which inhibition value is on record for COc1cc(/C=C2\COC/C(=C\c3ccc(O)c(OC)c3)C2=O)ccc1O ?
Result: 2

Q: I'd like to know its inhibition. The compound in question is CNC(=O)CN(c1cc([N+](=O)[O-])ccc1OC)S(C)(=O)=O
Result: 12.6

Q: Would you mind telling me what inhibition value was observed for N/C(CC(=O)Nc1cccc(C(F)(F)F)c1)=N/O ?
Result: 5.4

Q: I am curious: what inhibition value has been reported for Cc1ccccc1C(=O)Nc1ccc(N2CCN(C(=O)c3ccco3)CC2)cc1 ?
Result: 3.9

Q: Need inhibition, item CCOC(=O)CC1C(=O)NCCN1c1nc2c(C)cccn2c(=O)c1/C=C1\SC(=S)N(C(C)CC)C1=O (stereo not given)
Result: 49

Q: I am curious: what inhibition value has been reported for O=C(N/N=C/c1cccc2ccccc12)c1cc(C2CC2)[nH]n1 ?
Result: 10.5

The measurements presented in this section are drawn from PubChem BioAssay AID1566.
